experiment: S. cerevisiae growth modulation with rapamycin, primary screen, strain BY4716, OD600, 96 h (AID 1091); conditions: higher = more signal, called active from +8 up or from −8 down; also: test concentration not given here
Assignment: determine reported z-score for the given compounds.
One number for each entry.

Recorded results for 3 compounds are shown here.
[[record]]
compound = "O=C1OCCC/C=C\\[C@H]2OC34C=CCN(CCN5CCOCC5)C(=O)[C@H]3N(CCCCCO)C(=O)[C@@H]4C12 (stereo not given in full)"
experimental_endpoint = "z-score"
result = -0.824

[[record]]
compound = "CCCNC(=O)[C@@H]1c2ccccc2C(=O)N(C2CCCCC2)[C@H]1c1ccc(CO)cc1"
experimental_endpoint = "z-score"
result = 1.29

[[record]]
compound = "COc1cccc([C@@H]2[C@@H](C)CC[C@H]3C(=O)N4[C@H](c5cccc(OC)c5)[C@@H](C)CC[C@H]4C(=O)N23)c1"
experimental_endpoint = "z-score"
result = -0.616


Would you mind listing z-score for each of the following compounds?
1. N#Cc1ccc(NN2C(C(O)c3ccc(I)cc3)C=CC3C(=O)N(c4ccccc4)C(=O)C32)cc1 (stereo not given)
2. CC(=O)NCCCC[C@@H]1NC(=O)[C@H]2C[C@@H](C(=O)NCCCCCCN(C)C)[C@@H](c3cccc(OCCO)c3)N2C1=O
3. COC(=O)Cn1c(C(=O)N2CCCC2)cc2c1C[C@H]1CN(C(=O)c3ccccc3)[C@@](Cc3ccccc3)(C(=O)OC)[C@@H]21
4. COc1ccc(C(O)C2C=CC3C(=O)N(C)C(=O)C3N2N2CCCCC2)cc1OCc1ccccc1 (stereo not given)
5. CCOC(=O)C[C@H]1[C@H](OC(=O)c2cc3ccccc3oc2=O)[C@@H](NC(=O)C2CCCCC2)c2cc(OCCCO)ccc2N1C(=O)c1ccc2ccccc2n1
6. C[C@@H]1CC[C@H]2C(=O)N3CCC[C@H]3C(=O)N2[C@H]1c1ccc(Br)cc1

1. 3.88
2. -0.391
3. 0.651
4. 1.01
5. 1.29
6. -0.0146

Could I get z-score for every one of these entries?
1. [N-]=[N+]=NCc1ccccc1[C@H]1OC(c2ccc(OCCCO)cc2)=N[C@@]1(Cc1ccccc1N=[N+]=[N-])C(=O)NCc1ccccc1
2. C#C[C@H](O[Si](C#Cc1ccccc1)(C(C)C)C(C)C)c1ccccc1

1. 11.8
2. -2.8

For every listed record, write down its z-score.
1. CC(=O)NCCCC[C@@H]1NC(=O)[C@@H]2C[C@H](C(=O)NCCCCCCN(C)C)[C@H](c3ccc(O)cc3)N2C1=O
2. [N-]=[N+]=Nc1ccccc1C[C@@]1(C(=O)N2CCOCC2)N=C(c2ccc(OCCCO)cc2)O[C@@H]1c1ccccc1N=[N+]=[N-]
3. [N-]=[N+]=NCc1ccccc1C[C@@]1(C(=O)N2CCOCC2)N=C(c2ccc(OCCCO)cc2)O[C@@H]1c1ccccc1N=[N+]=[N-]
4. COc1cc2c(cc1OC)CN(C(=O)[C@@H]1[C@H]3C(=O)O[C@H](c4ccccc4)[C@H](c4ccccc4)N3[C@H](c3ccccc3OCCO)[C@@]13C(=O)Nc1ccccc13)CC2

0.905
1.56
6.02
5.58

---

Hi there, I'd appreciate the recorded z-score for every entry that follows.
target: Luciferin 4-monooxygenase (Photinus pyralis); experiment: firefly luciferase enzyme inhibitors, primary screen, biochemical, luminescence, purified enzyme, 2006 set (AID 1141); conditions: SteadyGlo luminescence, 30 min, higher = more signal, called active from +8 up or from −8 down;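 also: cell-free assay with purified firefly luciferase at 100 ng per well in PBS; test concentration not given here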
Numbers only.

For each listed entry, give its z-score.
1. CCN1C(C)=C(C(=O)OC)[C@@H](c2ccccc2)N2C(=O)[C@](O)(C(=O)OC)[C@@H](c3ccccc3)C(C(C)=O)=C12
2. O=[N+]([O-])c1ccc(C[n+]2ccc3ccc(O)cc3c2)o1
3. C=C(C)[C@@H]1CC=C(C(O)C2C=CC3C(=O)NC(=O)C3N2Nc2ccccn2)CC1 (some centres undefined)
4. CO[C@H]1COC(=O)CC=C[C@H](C)[C@@H](OC)COC(=O)[C@H](Cc2ccccc2)NC(=O)CC=C[C@@H]1C
5. O=C1C[C@@](C(=O)NC2CC2)(c2ccc([N+](=O)[O-])cc2)[C@@H](c2ccc(CO)cc2I)N1CC12CC3CC(CC(C3)C1)C2
6. COC(=O)Cn1c(C(=O)N2CCCC2)cc2c1C[C@H]1CN(C(=O)c3ccccc3)[C@@](Cc3ccccc3)(C(=O)OC)[C@@H]21

[-1.03, -2, -0.332, -1.06, -0.318, 0.659]

---

Answer each item with its documented composite z-score.
molecular target: Albumin (Bos taurus) (UniProt P02769); assay: bovine serum albumin binders on microarray, profiling panel, artefact control for SMM control protein annotation, biochemical, small-molecule microarray, Alexa647 label, 635/667 nm fluorescence (AID 1118); settings: BSA-A647 binding, fluorescence 635 nm, higher = more signal;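 also: score merges 667 nm emission intensity and signal-to-noise per printed compound spot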
Sequence (P02769 whole entry, looked up): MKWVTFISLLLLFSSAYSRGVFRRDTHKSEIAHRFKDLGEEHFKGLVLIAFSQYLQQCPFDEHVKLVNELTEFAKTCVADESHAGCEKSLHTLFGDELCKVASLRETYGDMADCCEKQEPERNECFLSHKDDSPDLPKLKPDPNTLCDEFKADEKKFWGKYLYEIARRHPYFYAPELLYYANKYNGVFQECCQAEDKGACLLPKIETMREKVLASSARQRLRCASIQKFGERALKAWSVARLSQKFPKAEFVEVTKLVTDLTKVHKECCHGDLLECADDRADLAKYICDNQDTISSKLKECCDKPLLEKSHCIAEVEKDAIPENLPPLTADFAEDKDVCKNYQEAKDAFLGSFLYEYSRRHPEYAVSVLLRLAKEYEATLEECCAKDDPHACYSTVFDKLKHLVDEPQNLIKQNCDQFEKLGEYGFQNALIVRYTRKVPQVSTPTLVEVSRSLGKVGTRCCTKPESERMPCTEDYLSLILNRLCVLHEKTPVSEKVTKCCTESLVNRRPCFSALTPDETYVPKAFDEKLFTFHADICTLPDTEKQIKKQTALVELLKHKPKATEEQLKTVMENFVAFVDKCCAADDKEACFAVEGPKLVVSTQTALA
Answers are plain numbers.

[[record]]
structure_string = "COc1ccc(CCN2C(=O)[C@@]3(c4ccc([N+](=O)[O-])cc4)CC(=O)N(CC45CC6CC(CC(C6)C4)C5)[C@@H]3c3ccc(CO)cc32)cc1"
experimental_endpoint = "composite z-score"
result = -0.181

[[record]]
structure_string = "COCCOC(=O)N1C(=O)[C@@]2(c3cc(C#CC4=CCCCC4)ccc31)[C@H](c1ccc(O)cc1)N1[C@H](c3ccccc3)[C@H](c3ccccc3)OC(=O)[C@H]1[C@@H]2C(=O)N1CCCCCCC1"
experimental_endpoint = "composite z-score"
result = -0.645


Any idea what composite z-score was measured for `COC(=O)C[C@H]1O[C@]2(C(=O)N(C)c3ccccc32)[C@@H](C)[C@@H]1[Si](C)(C)c1ccc(OC)cc1` ?
0.163

---

Record form. Attribute: composite z-score. Fill in for each entry.
molecular target: Fibroblast growth factor 2 (Homo sapiens) (UniProt P09038); assay: FGF2 binders on small-molecule microarrays, primary screen, biochemical, small-molecule microarray, 635/667 nm fluorescence (AID 1133); settings: small-molecule microarray binding, FGF2, fluorescence 635/667; higher = more signal
Sequence (P09038 whole entry, looked up): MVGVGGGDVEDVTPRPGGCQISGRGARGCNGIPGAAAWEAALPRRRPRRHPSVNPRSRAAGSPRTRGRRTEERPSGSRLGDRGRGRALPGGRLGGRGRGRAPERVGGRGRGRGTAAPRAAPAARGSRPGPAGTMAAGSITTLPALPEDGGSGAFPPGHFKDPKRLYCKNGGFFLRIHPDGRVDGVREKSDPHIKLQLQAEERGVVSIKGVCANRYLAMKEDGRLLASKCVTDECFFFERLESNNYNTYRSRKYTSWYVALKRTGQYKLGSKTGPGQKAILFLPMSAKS
Numbers only.

[[record]]
molecule = "C=C(C(=O)CC[C@H](OC(=O)c1ccccc1-c1ccccc1C(=O)O)c1ccc(CO)o1)C(C)C"
result = 1.46

[[record]]
molecule = "C[C@H]1COC(=O)[C@@H]2CCCN2C(=O)[C@@H](C)COC(=O)[C@@H]2CCCN2C1=O"
result = 0.1

[[record]]
molecule = "CO[C@]12C=C(Br)[C@@H](C[C@@H]1c1ccccc1)[C@@]1(CO1)C2=O"
result = 0.6

[[record]]
molecule = "C[C@]1(C(=O)NCc2ccccc2)c2ccccc2C(=O)N(Cc2cc(C(F)(F)F)cc(C(F)(F)F)c2)[C@H]1c1ccc(CO)cc1"
result = 1.72

[[record]]
molecule = "C[C@@H]1CC[C@H]2C(=O)N3CCC[C@H]3C(=O)N2[C@H]1c1ccc(Br)cc1"
result = 0.36


Would you be so kind as to report composite z-score for each listed record?
1. CO[C@@H]1COC(=O)[C@H](C)NC(=O)CC=C[C@@H](C)[C@H](NS(=O)(=O)c2ccc(C)cc2)COC(=O)CC=C[C@@H]1C
2. C=CCN1C(=O)[C@@]2(Cc3ccccc3)N=C(c3ccc(OCCCO)cc3)O[C@H]2c2ccccc21
3. C=C(/C(=C/C[C@@H](OC(=O)c1ccncc1)c1ccc(CO)o1)c1cnc2ccccc2c1)C(C)C
4. CO[C@H]1COC(=O)[C@@H](Cc2ccccc2)NC(=O)[C@@H](C)COC(=O)CC=C[C@@H]1C

1. 0.0544
2. 1.08
3. 1.07
4. 1.01

State the recorded composite z-score for every item in the following list.
1. COC(=O)C1=CC(c2ccc(CO)cc2)=CC(c2cccs2)N(Cc2cccc(OC(F)(F)F)c2)C=C1C(=O)OC (stereo not given)
2. COc1cc2c(cc1OC)CN(C(=O)[C@H]1[C@@H]3C(=O)O[C@@H](c4ccccc4)[C@@H](c4ccccc4)N3[C@@H](c3ccccc3OCCO)[C@]13C(=O)Nc1ccc(C#CC4(O)CCCCCC4)cc13)CC2
3. COCCOC(=O)N1C(=O)[C@@]2(c3cc(C#CCCO)ccc31)[C@H](C(=O)N1CCCCCCC1)[C@H]1C(=O)O[C@H](c3ccccc3)[C@H](c3ccccc3)N1[C@@H]2c1ccc(O)cc1

1: -0.316; 2: 1.27; 3: 0.661

Hey, can you go through the list below and give me composite z-score for every item?
1. COCCOC(=O)N1C(=O)[C@@]2(c3cc(C#CC4=CCCCC4)ccc31)[C@H](c1ccc(O)cc1)N1[C@H](c3ccccc3)[C@H](c3ccccc3)OC(=O)[C@H]1[C@@H]2C(=O)N1CCCCCCC1
2. Cc1ccc(S[C@]2(C(=O)NCCN3CCOCC3)CC(=O)N(C3Cc4ccccc4C3)[C@@H]2c2ccc(CO)cc2I)cc1
3. COc1cccc([C@@H]2[C@@H](C)CC[C@H]3C(=O)N(C)[C@@H](C(C)C)C(=O)N23)c1

1: 1.22; 2: -1.41; 3: 0.348

// for each molecule below, give its composite z-score
1. COc1cc(CO)cc(I)c1O[C@H]1C=C(C(=O)NCCO)C[C@@H](N(CC2CCCCC2)C(=O)c2cc3ccccc3oc2=O)[C@@H]1O
2. C[C@@H]1CC[C@H]2C(=O)N3[C@@H](CC[C@@H](C)[C@@H]3c3cccc(N4CCOCC4)c3)C(=O)N2[C@H]1c1cccc(N2CCOCC2)c1
3. COc1cc([C@@H]2N[C@H](C(=O)O)Cc3c2[nH]c2ccccc32)cc(OC)c1OC
4. COc1ccc([Si](C)(C)[C@H]2[C@H](CC(=O)N(CCO)Cc3ccccc3)O[C@@]3(C(=O)N(C)c4ccccc43)[C@@H]2C)cc1
5. COc1ccc([Si](C)(C)[C@H]2[C@H](CCO)O[C@@]3(C(=O)N(Cc4ccccc4)c4ccc(N5C(=O)c6cccc7cccc5c67)cc43)[C@@H]2C)cc1
6. CCCNC(=O)[C@@H]1c2ccccc2C(=O)N(C2CCCCC2)[C@H]1c1ccc(CO)cc1
7. C=C(COC)/C(=C/C[C@@H](OC(=O)c1ccncc1)c1ccc(OCCO)cc1)c1cc(C(=O)OC)ccc1OC

1. 1.17
2. 1.16
3. 0.254
4. 1.01
5. -0.751
6. 0.915
7. 0.334

Respectfully, I request composite z-score for each entry included below.
1. COC(=O)[C@@]1(Cc2ccccc2N=[N+]=[N-])N=C(c2ccc(OCCCO)cc2)O[C@H]1c1ccccc1CN=[N+]=[N-]
2. O=C1O[C@@H](c2ccccc2)[C@@H](c2ccccc2)N2[C@@H](c3ccc(O)cc3)[C@]3(C(=O)Nc4ccc(C#CC5(O)CCCCCC5)cc43)[C@@H](C(=O)Nc3nc4ccccc4s3)[C@H]12
3. O=C(NCC(O)CO)[C@]1(Cc2ccccc2)N=C(c2ccc(OCCCO)cc2)O[C@@H]1c1ccccc1 (stereo not given in full)

0.609
1.21
-0.836

Where do these numbers come from? They come from PubChem BioAssay.
